test_target: TBK1 (Homo sapiens (Human), UniProt Q9UHD2)
Sequence (Q9UHD2 whole entry): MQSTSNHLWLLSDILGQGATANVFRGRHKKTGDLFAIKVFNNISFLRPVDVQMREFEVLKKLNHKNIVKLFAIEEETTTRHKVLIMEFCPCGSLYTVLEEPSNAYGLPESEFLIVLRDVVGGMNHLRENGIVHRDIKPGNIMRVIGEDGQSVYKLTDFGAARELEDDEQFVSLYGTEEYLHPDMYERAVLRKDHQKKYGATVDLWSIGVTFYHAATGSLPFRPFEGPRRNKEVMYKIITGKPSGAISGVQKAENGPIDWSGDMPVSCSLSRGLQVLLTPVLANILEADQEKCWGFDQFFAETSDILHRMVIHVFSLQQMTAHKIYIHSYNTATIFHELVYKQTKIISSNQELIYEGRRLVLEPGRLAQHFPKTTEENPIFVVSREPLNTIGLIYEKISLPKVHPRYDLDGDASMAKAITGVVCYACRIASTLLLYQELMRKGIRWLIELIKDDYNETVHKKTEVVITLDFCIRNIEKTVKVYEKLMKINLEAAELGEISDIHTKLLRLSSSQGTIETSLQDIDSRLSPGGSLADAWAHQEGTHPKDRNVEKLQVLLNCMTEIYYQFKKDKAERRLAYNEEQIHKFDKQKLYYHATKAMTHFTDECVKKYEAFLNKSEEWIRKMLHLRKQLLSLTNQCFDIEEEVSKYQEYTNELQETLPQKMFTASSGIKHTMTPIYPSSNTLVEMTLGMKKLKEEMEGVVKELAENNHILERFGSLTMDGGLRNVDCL
test_method_notes: TBK1 low ATP kinase assay (in vitro assay 1)
Assay type: biochemical
recorded_conditions: in vitro assay 1, read-out: TBK1 low ATP kinase assay IC50
readout_kind: IC50 (nM)

See these solved cases before continuing.
O=C(CC(F)(F)F)N1CCN(Cc2ccnc(Nc3nc4ccc(-c5cc(OCC6CCC6)ncn5)cc4[nH]3)c2)CC1; 15
COc1cc(-c2ccc3nc(Nc4cc(C(C)N5CCN(C(=O)C6CC6)CC5)ccn4)[nH]c3c2)ncn1 (single isomer, unassigned) [Example 34.03.02.B]; 7.22

A: CC(C)Oc1cc(-c2ccc3nc(Nc4cc(CN5CCN(C(=O)C6CC6)CC5)ccn4)[nH]c3c2)ncn1
B: CCn1cc(-c2ccc3nc(Nc4cc(CN5CCN(C(=O)C6CC6)CC5)ccn4)[nH]c3c2)cn1
QUERY: Of the two listed items, which has the higher IC50? First: A Second: B State the label of the item chosen.
RESULT: B
